System under test: 5-hydroxytryptamine receptor 1B (Homo sapiens, UniProt P28222)
Sequence (P28222 whole entry): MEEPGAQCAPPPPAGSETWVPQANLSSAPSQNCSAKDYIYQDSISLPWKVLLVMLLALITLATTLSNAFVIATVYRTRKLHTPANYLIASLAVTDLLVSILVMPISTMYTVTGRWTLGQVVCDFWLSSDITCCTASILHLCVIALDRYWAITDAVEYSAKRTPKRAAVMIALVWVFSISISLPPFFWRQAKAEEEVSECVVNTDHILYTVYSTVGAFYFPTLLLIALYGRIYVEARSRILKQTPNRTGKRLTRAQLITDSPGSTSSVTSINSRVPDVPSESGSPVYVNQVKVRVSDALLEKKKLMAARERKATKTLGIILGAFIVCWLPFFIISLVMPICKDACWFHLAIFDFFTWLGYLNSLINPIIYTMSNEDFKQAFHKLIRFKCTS
Method summary: The compound was evaluated for intrinsic activity against human cloned 5-hydroxytryptamine 1B receptor
Give measured Kb for each item. Keep answers brief.
Value expressed in nM; do not type the unit.

input: Fill in the blank: the reported Kb of `COc1ccc(NC(=O)N2CCN(c3ccccc3)CC2)cc1N1CCN(C)CC1` is ____.
output: 27

input: Fill in the blank: the reported Kb of `COc1ccc(N2CCN(C(=O)Nc3ccc(OC)c(N4CCN(C)CC4)c3)CC2)cc1` is ____.
output: 12

input: Fill in the blank: the reported Kb of `COc1ccc(NC(=O)N2CCN(c3ccccc3OC)CC2)cc1N1CCN(C)CC1` is ____.
output: 16

input: Fill in the blank: the reported Kb of `COc1ccc(NC(=O)N2CCN(c3cccc4c3CCCC4)CC2)cc1N1CCN(C)CC1` is ____.
output: 39
